All figures here come from patent US20230312646A1.

The reader will find reported kon values listed item by item below.
study.target: Escherichia coli SC (^EcSC) (Escherichia coli)
Construct: His tag (inferred from the pET15b vector and Ni-NTA purification) (N); made in house; host or cells: E. coli
Sequence (P0A988 whole entry): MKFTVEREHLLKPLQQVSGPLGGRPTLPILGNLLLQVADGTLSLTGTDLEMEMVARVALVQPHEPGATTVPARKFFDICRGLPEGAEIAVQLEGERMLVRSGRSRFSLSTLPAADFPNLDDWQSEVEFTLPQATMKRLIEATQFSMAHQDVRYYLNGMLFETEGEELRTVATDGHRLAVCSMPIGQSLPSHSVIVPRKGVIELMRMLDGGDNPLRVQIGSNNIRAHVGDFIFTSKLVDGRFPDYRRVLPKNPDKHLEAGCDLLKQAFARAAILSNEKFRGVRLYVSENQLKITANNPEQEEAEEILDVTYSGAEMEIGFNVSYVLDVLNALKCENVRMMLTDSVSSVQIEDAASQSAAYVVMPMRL
measurement.notes: biochemical
Assay type: binding
experimental.parameters: read-out: kon (M^-1.s^-1)
Numbered stars: 1 amine (or outer) side, 2 acyl side, 3 side chain; on linkers, the order of the positions; unused ones are H or OH. Square brackets hold non-standard residues; d marks the D form. Peptide text beside a SMILES is read from it. * marks the point of attachment. X5 = O=C([C@@H]1CC(O)CN1[*:1])[*:2]; Hydrocinnamoyl = O=C(CCc1ccccc1)*; Cha = N[C@@H](CC1CCCCC1)C(=O)O; X1 = O=C(/C=C/c1ccc2ccccc2c1)*; NHPhenethyl = c1ccc(CCN*)cc1; X8 = NC[C@H](Cc1ccccc1)N*
experimental.readout: kon (M⁻¹ s⁻¹)

compound	reported.value
CC(=O)N[C@@H](CCC(N)=O)C(=O)N[C@@H](CC1CCCCC1)C(=O)N[C@@H](CC(=O)O)C(=O)N[C@@H](CC(C)C)C(=O)N1CC(O)C[C@H]1C(=O)N[C@@H](CC(C)C)C(=O)O (stereo partly drawn) [P33] (Ac-Q[Cha]DL[X5]L-OH)	44000
CC(C)C[C@H](NC(=O)[C@H](CC(=O)O)NC(=O)[C@H](CC1CCCCC1)NC(=O)[C@H](CCC(N)=O)NC(=O)/C=C/c1ccc2ccccc2c1)C(=O)N[C@@H](Cc1ccccc1)C(=O)O [P20] (X1-Q[Cha]DLF-OH)	65000
CC(=O)N[C@@H](CCC(N)=O)C(=O)N[C@@H](CC1CCCCC1)C(=O)N[C@@H](CC(=O)O)C(=O)N[C@@H](CC(C)C)C(=O)NCCc1ccccc1 [P23] (Ac-Q[Cha]DL-NHPhenethyl)	19000
CC(=O)N[C@@H](CCC(N)=O)C(=O)N[C@@H](CC1CCCCC1)C(=O)N[C@@H](CC(=O)O)C(=O)N[C@@H](CC(C)C)C(=O)N[C@@H](Cc1ccccc1)C(N)=O [P26] (Ac-Q[Cha]DLF-NH2)	33000
CC(=O)N[C@@H](CCC(N)=O)C(=O)N[C@@H](CC1CCCCC1)C(=O)N[C@@H](CC(=O)O)C(=O)N[C@@H](CC(C)C)C(=O)N[C@H](CN)Cc1ccccc1 [P25] (Ac-Q[Cha]DL-X8)	12000
CC(C)C[C@H](NC(=O)[C@H](CC(=O)O)NC(=O)[C@H](CC1CCCCC1)NC(=O)[C@H](CCC(N)=O)NC(=O)CCc1ccccc1)C(=O)N[C@@H](Cc1ccccc1)C(=O)O [P19] (Hydrocinnamoyl-Q[Cha]DLF-OH)	55000
